Origin of values: ChEMBL document CHEMBL4699627

- study-target: Rhodesain (Trypanosoma brucei rhodesiense)
- Sequence (Q95PM0 whole entry): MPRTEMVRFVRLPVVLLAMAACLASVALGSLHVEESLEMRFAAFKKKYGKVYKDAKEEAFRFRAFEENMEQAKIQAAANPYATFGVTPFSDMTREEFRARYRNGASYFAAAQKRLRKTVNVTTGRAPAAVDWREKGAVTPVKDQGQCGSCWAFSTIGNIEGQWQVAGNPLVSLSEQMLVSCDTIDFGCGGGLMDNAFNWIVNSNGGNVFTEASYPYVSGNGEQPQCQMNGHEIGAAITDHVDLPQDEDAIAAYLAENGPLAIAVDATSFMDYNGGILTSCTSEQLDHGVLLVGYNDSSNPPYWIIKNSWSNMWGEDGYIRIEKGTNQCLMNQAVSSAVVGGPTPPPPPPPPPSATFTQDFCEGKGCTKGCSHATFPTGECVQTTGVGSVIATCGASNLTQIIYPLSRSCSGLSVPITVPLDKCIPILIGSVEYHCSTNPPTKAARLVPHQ
test-readout: pIC50
// scale note: pIC50 = -log10(conc_M); give the bare number

# returns recorded pIC50 (system: Rhodesain (Trypanosoma brucei rhodesiense)) for COc1cc(C/C=N/NC(N)=S)ccc1O[C@@H]1O[C@H](COC(C)=O)[C@H](OC(C)=O)[C@H](OC(C)=O)[C@H]1OC(C)=O 5.92

----------
- System: PC-3
- assay-explanation: Cytotoxicity against human PC-3 cells incubated for 3 days by MTT assay
- Assay type: functional, cell-based
- experimental-setup: PC-3, 72 h
IC50 for assorted compounds

C/C(=N\NC(=S)NN[C@@H]1O[C@H](CO)[C@@H](O)[C@H](O)[C@H]1O)c1ccccn1 ... 2800 nM

// moving on: another record for IC50
Recorded IC50 of O=c1[nH]cc(F)c(=O)[nH]1 , please. 2880 nM

----------
- Tested on: Saccharomyces cerevisiae
- assay-explanation: Antifungal activity against Saccharomyces cerevisiae SH 20
- Format: functional
test-readout: MIC

CC(=O)OC[C@H]1O[C@@H](NC(=S)N/N=C(\C)c2cc3cc(Cl)ccc3oc2=O)[C@H](OC(C)=O)[C@@H](OC(C)=O)[C@@H]1OC(C)=O ... 50 µM

// moving on: another record for MIC
Recorded MIC of CC(=O)OC[C@H]1O[C@@H](NC(=S)N/N=C(\C)c2cc3cc(C)ccc3oc2=O)[C@H](OC(C)=O)[C@@H](OC(C)=O)[C@@H]1OC(C)=O , please. 25 µM

----------
MIC for assorted molecules
- System: Saccharomyces cerevisiae
- assay-explanation: Antifungal activity against Saccharomyces cerevisiae SH 20
- Type: functional
Give just the numeric value; µM need not be written.

CC(=O)OC[C@H]1O[C@@H](NC(=S)N/N=C(\C)c2c(C)c3ccc(O)cc3oc2=O)[C@H](OC(C)=O)[C@@H](OC(C)=O)[C@@H]1OC(C)=O ... 0.78
CC(=O)OC[C@H]1O[C@@H](NC(=S)N/N=C(\C)c2cc3cc(Br)ccc3oc2=O)[C@H](OC(C)=O)[C@@H](OC(C)=O)[C@@H]1OC(C)=O ... 25
CC(=O)OC[C@H]1O[C@@H](NC(=S)N/N=C(\C)c2cc3cccc([N+](=O)[O-])c3oc2=O)[C@H](OC(C)=O)[C@@H](OC(C)=O)[C@@H]1OC(C)=O ... 12.5
OC(Cn1cncn1)(Cn1cncn1)c1ccc(F)cc1F [FLUCONAZOLE] ... 0.78
COc1cccc2cc(/C(C)=N/NC(=S)N[C@@H]3O[C@H](COC(C)=O)[C@@H](OC(C)=O)[C@H](OC(C)=O)[C@H]3OC(C)=O)c(=O)oc12 ... 50
CC(=O)OC[C@H]1O[C@@H](NC(=S)N/N=C(\C)c2cc3cc([N+](=O)[O-])ccc3oc2=O)[C@H](OC(C)=O)[C@@H](OC(C)=O)[C@@H]1OC(C)=O ... 25

Recorded MIC of CC(=O)OC[C@H]1O[C@@H](NC(=S)N/N=C(\C)c2cc3ccccc3oc2=O)[C@H](OC(C)=O)[C@@H](OC(C)=O)[C@@H]1OC(C)=O , please. 50

Recorded MIC of Clc1ccc(COC(Cn2ccnc2)c2ccc(Cl)cc2Cl)c(Cl)c1 (stereo not given) [MICONAZOLE] , please. 3.12

Recorded MIC of CC(=O)OC[C@H]1O[C@@H](NC(=S)N/N=C(\C)c2c(C)c3ccccc3oc2=O)[C@H](OC(C)=O)[C@@H](OC(C)=O)[C@@H]1OC(C)=O , please. 12.5
